Target: Urotensin-2 receptor (Homo sapiens, UniProt Q9UKP6)
Sequence (Q9UKP6 whole entry): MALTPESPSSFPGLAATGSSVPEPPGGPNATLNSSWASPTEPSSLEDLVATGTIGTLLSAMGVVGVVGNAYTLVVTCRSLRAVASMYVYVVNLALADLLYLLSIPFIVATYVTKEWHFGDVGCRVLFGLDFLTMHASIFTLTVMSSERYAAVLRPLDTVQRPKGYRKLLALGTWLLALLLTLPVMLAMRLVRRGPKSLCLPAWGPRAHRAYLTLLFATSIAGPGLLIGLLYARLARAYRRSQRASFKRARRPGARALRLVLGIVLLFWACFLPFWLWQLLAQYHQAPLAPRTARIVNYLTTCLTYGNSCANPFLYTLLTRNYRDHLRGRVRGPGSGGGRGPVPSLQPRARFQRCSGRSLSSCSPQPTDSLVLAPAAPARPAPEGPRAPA
Assay: Agonist activity at human UT receptor expressed in HEK293 cells co-expressing G12-polycistronic BRET biosensor assessed as induction of G12 activation measured for 5 mins by luminescence detection based BRET assay
Assay type: functional, cell-based
pEC50: −log10 of the molar value.
QUANTITY KIND: pEC50

These solved cases illustrate the format of a correct answer.
CC(C)[C@H](NC(=O)[C@@H]1CSSC[C@H](NC(=O)[C@H](C)N)C(=O)N[C@H](Cc2ccc(C#Cc3ccccc3)cc2)C(=O)N[C@@H](Cc2c[nH]c3ccccc23)C(=O)N[C@@H](CCCCN)C(=O)N[C@@H](Cc2ccc(O)cc2)C(=O)N1)C(=O)O ... 6.42
CC(C)[C@H](NC(=O)[C@@H]1CSSC[C@H](NC(=O)[C@H](C)N)C(=O)N[C@@H](Cc2ccc(I)cc2)C(=O)N[C@@H](Cc2c[nH]c3ccccc23)C(=O)N[C@@H](CCCCN)C(=O)N[C@@H](Cc2ccc(O)cc2)C(=O)N1)C(=O)O ... 7.32

[P] CC(C)[C@H](NC(=O)[C@@H]1CSSC[C@H](NC(=O)[C@H](C)N)C(=O)N[C@H](Cc2ccc(I)cc2)C(=O)N[C@@H](Cc2c[nH]c3ccccc23)C(=O)N[C@@H](CCCCN)C(=O)N[C@@H](Cc2ccc(O)cc2)C(=O)N1)C(=O)O
[Q] CC(C)[C@H](NC(=O)[C@@H]1CSSC[C@H](NC(=O)[C@@H](N)CC(=O)O)C(=O)N[C@@H](Cc2ccc(I)cc2)C(=O)N[C@@H](Cc2c[nH]c3ccccc23)C(=O)N[C@@H](CCCCN)C(=O)N[C@@H](Cc2ccc(O)cc2)C(=O)N1)C(=O)O
Input line: For this pair, P and Q , which shows a numerically higher pEC50? Answer = label.
Output line: Q
(Q: 7.44, P: 7.05)

[a] CC(C)[C@H](NC(=O)[C@@H]1CSSC[C@H](NC(=O)[C@H](C)N)C(=O)N[C@@H](Cc2ccc(-c3ccccc3)cc2)C(=O)N[C@@H](Cc2c[nH]c3ccccc23)C(=O)N[C@@H](CCCCN)C(=O)N[C@@H](Cc2ccc(O)cc2)C(=O)N1)C(=O)O
[b] CC(C)[C@H](NC(=O)[C@@H]1CSSC[C@H](NC(=O)[C@H](C)N)C(=O)N[C@H](Cc2ccc(-c3ccccc3)cc2)C(=O)N[C@@H](Cc2c[nH]c3ccccc23)C(=O)N[C@@H](CCCCN)C(=O)N[C@@H](Cc2ccc(O)cc2)C(=O)N1)C(=O)O
Input line: For this pair, a and b , which shows a numerically higher pEC50? Answer = label.
Output line: a
(a: 6.92, b: 6.18)

[1] CC(C)[C@H](NC(=O)[C@@H]1CSSC[C@H](NC(=O)[C@H](C)N)C(=O)N[C@@H](Cc2ccccc2)C(=O)N[C@@H](Cc2c[nH]c3ccccc23)C(=O)N[C@@H](CCCCN)C(=O)N[C@@H](Cc2ccc(O)cc2)C(=O)N1)C(=O)O
[2] CC(C)[C@H](NC(=O)[C@@H]1CSSC[C@H](NC(=O)[C@H](C)N)C(=O)N[C@@H](Cc2ccc(C#Cc3ccccc3)cc2)C(=O)N[C@@H](Cc2c[nH]c3ccccc23)C(=O)N[C@@H](CCCCN)C(=O)N[C@@H](Cc2ccc(O)cc2)C(=O)N1)C(=O)O
Input line: Param metric = pEC50; output whichever of 1 , 2 has the minimum value. Answer = label.
Output line: 2
